Record form. Attribute: GI50. Fill in for each entry.
system: SF-268 CNS; assay: NCI tumour cell line growth inhibition, 48 h

Task: Dear colleague, I am looking for the recorded GI50 of the following compound: `O[C@@H]1CCCN1Cc1cc2cc3c(cc2c2cc(OCc4ccccc4)ccc12)OCO3`
Result: 4.78 µM

Task: Dear colleague, I am looking for the recorded GI50 of the following compound: `O=C1/C(=C/c2ccc([N+](=O)[O-])o2)Oc2ccccc21`
Result: 2.19 µM

Task: Dear colleague, I am looking for the recorded GI50 of the following compound: `O=c1[nH]ccc2nc(-c3ccc(CN4CCC(c5nc(-c6ccccn6)n[nH]5)CC4)cc3)c(-c3ccccc3)cc12`
Result: 25.9 µM

Task: Dear colleague, I am looking for the recorded GI50 of the following compound: `COc1cc(Nc2ncc3c(C)nc(-c4cccc(Oc5ccccc5)c4)n3n2)cc(OC)c1OC`
Result: 6.6 µM

Task: Dear colleague, I am looking for the recorded GI50 of the following compound: `O=C1CSC(=S)N1Cc1cccnc1`
Result: 5.75 µM

Task: Dear colleague, I am looking for the recorded GI50 of the following compound: `c1ccc2c(-c3nc4ccccc4[nH]3)cccc2c1`
Result: 5.62 µM

Task: Dear colleague, I am looking for the recorded GI50 of the following compound: `COc1cc(C(=O)N2CCN(c3ccccc3OC)CC2)c(N)cc1OCc1ccccc1`
Result: 43.8 µM

Task: Dear colleague, I am looking for the recorded GI50 of the following compound: `COC(=O)c1oc2c(O)c(OC)c(Br)cc2c1C`
Result: 31 µM

Task: Dear colleague, I am looking for the recorded GI50 of the following compound: `C=C(C)[C@@H]1CC[C@]2(C(=O)O)CC[C@]3(C)[C@H](CC[C@@H]4[C@@]5(C)C[C@@H](CC#Cc6ccc(Br)cc6)C(=O)C(C)(C)[C@@H]5CC[C@]43C)[C@@H]12`
Result: 6.23 µM

* * *

Record form. Attribute: TGI. Fill in for each entry.
system: T-47D breast; experiment: NCI tumour cell line growth inhibition, 48 h

Task: Dear colleague, I am looking for the recorded TGI of the following compound: `c1ccc(/N=N\Nc2ccc(-c3nc4ccccc4o3)cc2)nc1`
Result: 87.1 µM

Task: Dear colleague, I am looking for the recorded TGI of the following compound: `CCN(CC)CCCNc1nc2ccccc2c2c(=O)c3cc(Cl)ccc3sc12`
Result: 27.7 µM

Task: Dear colleague, I am looking for the recorded TGI of the following compound: c1ccc2c(c1)CCN1CCc3c([nH]c4ccccc34)C21 (stereo not drawn)
Result: > 100 µM

Task: Dear colleague, I am looking for the recorded TGI of the following compound: `CN(C)c1ccc(/C=C/c2ccnc3ccccc23)cc1N`
Result: 5.36 µM

Task: Dear colleague, I am looking for the recorded TGI of the following compound: `COc1cc2c3c(n(CCCNC(=O)OCC4c5ccccc5-c5ccccc54)c(=O)c2cc1OC)-c1cc2c(cc1C3=O)OCO2`
Result: > 100 µM

Task: Dear colleague, I am looking for the recorded TGI of the following compound: `CC(=O)c1c(O)ccc2c(C)c(C(=O)O)oc12`
Result: > 100 µM

Task: Dear colleague, I am looking for the recorded TGI of the following compound: `CC(C)CCNC(=O)c1ccc(CNC(=O)/C=C/c2csc(-c3ccccc3)n2)cc1`
Result: > 100 µM

Task: Dear colleague, I am looking for the recorded TGI of the following compound: `COc1ccc(N2CCN(Cc3c(C(C)=O)[n+](=O)c4ccccc4n3[O-])CC2)cc1`
Result: > 100 µM

Task: Dear colleague, I am looking for the recorded TGI of the following compound: `CC(=O)O[C@H]1[C@H](OC(C)=O)[C@@H](CN=[N+]=[N-])OCO[C@@H]1CN=[N+]=[N-]`
Result: > 100 µM

Task: Dear colleague, I am looking for the recorded TGI of the following compound: COc1cc(C2CC(c3ccc(Nc4ccnc5cc(Cl)ccc45)cc3)=NN2C=O)cc(OC)c1OC (stereo not drawn)
Result: 7.4 µM

Task: Dear colleague, I am looking for the recorded TGI of the following compound: `CCSc1nc(N2CCCCC2)c2cn[nH]c2n1`
Result: 62.4 µM

Task: Dear colleague, I am looking for the recorded TGI of the following compound: `O=c1[nH]ccc2nc(-c3ccc(CN4CCC(c5nc(-c6ccccn6)n[nH]5)CC4)cc3)c(-c3ccccc3)cc12`
Result: 0.0729 µM

Task: Dear colleague, I am looking for the recorded TGI of the following compound: CC(=O)N1C(C(=O)NNc2ccccc2)CSC1c1ccccc1 (stereo not drawn)
Result: > 100 µM

Task: Dear colleague, I am looking for the recorded TGI of the following compound: `COc1cc2c3c(n(CCCCNC(=O)OCC4c5ccccc5-c5ccccc54)c(=O)c2cc1OC)-c1cc2c(cc1C3=O)OCO2`
Result: > 100 µM

Task: Dear colleague, I am looking for the recorded TGI of the following compound: `O[C@@H]1CCCN1Cc1cc2cc3c(cc2c2cc(OCc4ccccc4)ccc12)OCO3`
Result: 11.7 µM

Task: Dear colleague, I am looking for the recorded TGI of the following compound: `Cn1ccnc1C(=O)/C=C/c1ccc(C(=O)Nc2ccccc2O)cc1`
Result: 10.8 µM

Task: Dear colleague, I am looking for the recorded TGI of the following compound: `c1ccc2c(-c3nc4ccccc4[nH]3)cccc2c1`
Result: > 100 µM

Task: Dear colleague, I am looking for the recorded TGI of the following compound: `Cc1cc(NCCCCNc2ccnc3cc(Cl)ccc23)nc(Nc2ccc(C(=O)N3CCCC3)cc2)n1`
Result: 6.76 µM

Task: Dear colleague, I am looking for the recorded TGI of the following compound: `O=C1NC(N/N=C/c2ccccc2)=N/C1=C\c1cccs1`
Result: > 100 µM

Task: Dear colleague, I am looking for the recorded TGI of the following compound: O=C1/C(=C/c2ccc(Cl)cc2)N=C(c2ccccc2)N1C1Nc2cc3c(cc2S1)NC(N1C(=O)/C(=C/c2ccc(Cl)cc2)N=C1c1ccccc1)S3 (stereo not drawn)
Result: > 100 µM

Task: Dear colleague, I am looking for the recorded TGI of the following compound: `C=C(C)[C@@H]1CC[C@]2(C(=O)O)CC[C@]3(C)[C@H](CC[C@@H]4[C@@]5(C)C[C@@H](CC#Cc6ccc(Br)cc6)C(=O)C(C)(C)[C@@H]5CC[C@]43C)[C@@H]12`
Result: > 100 µM

Task: Dear colleague, I am looking for the recorded TGI of the following compound: `O=C1c2cccc3cccc(c23)C(=O)N1CCCCN1CCN(CCCCOc2ccc(-c3nc4ccc(N5CCOCC5)cc4[nH]3)cc2)CC1`
Result: > 100 µM

Task: Dear colleague, I am looking for the recorded TGI of the following compound: `Cn1c(=O)c2c(ncn2CCSS(=O)(=O)O)n(C)c1=O`
Result: > 100 µM

Task: Dear colleague, I am looking for the recorded TGI of the following compound: `CCOC(=O)NC(NNc1ccc([N+](=O)[O-])cc1[N+](=O)[O-])(C(F)(F)F)C(F)(F)F`
Result: > 100 µM

Task: Dear colleague, I am looking for the recorded TGI of the following compound: `COc1ccc(/C=C(\C(=O)OCC(C)C)c2ccc(OC)c(OC)c2)cc1OC`
Result: > 100 µM

Task: Dear colleague, I am looking for the recorded TGI of the following compound: `OCCCCn1cc(Cn2ncc3c(SCc4ccccc4)ncnc32)nn1`
Result: > 100 µM

Task: Dear colleague, I am looking for the recorded TGI of the following compound: `COc1cc(OC)c2cc(C(=O)O)c(=O)oc2c1`
Result: > 100 µM

Task: Dear colleague, I am looking for the recorded TGI of the following compound: `CCOC(=O)C1(C(=O)OCC)CSC1`
Result: > 100 µM
